- test_method_notes: Tmax in C57BL/6 mouse at 3 mg/kg, po
- Assay type: ADME, organism-based
- test_context: in vivo
reported_metric: Tmax (min)

{"columns": ["item_smiles", "unit_descriptor", "measured_number"],
 "data": [
  ["CNC(=O)c1csc2c(C(F)(F)F)cc(N3CCC(OC(=O)N[C@@H](C)COC(F)(F)F)CC3)nc12", "min", 30]
]}

---

- test_method_notes: Distribution coefficient, log D of the compound
- Type: physicochemical
- test_context: octanol/water
Hi, to clarify the labels: y covers logD from 4 upward, n covers anything below 4.

{"columns": ["item_smiles", "cat"],
 "data": [
  ["CCC(=O)c1csc2c(C(F)(F)F)cc(N3CCN(CC(=O)NC(C)C)CC3)nc12", "n"],
  ["CNC(=O)c1csc2c(C(F)(F)F)cc(N3CCC(OC(=O)N[C@@H](C)COC(F)(F)F)CC3)nc12", "y"],
  ["CNC(=O)c1csc2c(C(F)(F)F)cc(N3CCC(OC(=O)N4CC(OC(F)(F)F)C4)CC3)nc12", "y"],
  ["CNC(=O)c1csc2c(C(F)(F)F)cc(N3CCN(CC(=O)C(C)(C)C)CC3)nc12", "n"],
  ["CC(C)NC(=O)CN1CCN(c2cc(C(F)(F)F)c3scc(C(=O)N4CCC4)c3n2)CC1", "n"]
]}

---

- test_method_notes: Tmax in Beagle dog at 3 mg/kg, po
- Type: ADME, organism-based, Canis lupus familiaris
- test_context: in vivo

{"columns": ["item_smiles", "Tmax"],
 "data": [
  ["CNC(=O)c1csc2c(C(F)(F)F)cc(N3CCC(OC(=O)N[C@@H](C)COC(F)(F)F)CC3)nc12", "1.33 h"]
]}

---

- test_method_notes: Protein binding in C57BL/6 mouse plasma
- Assay type: ADME, cell-free
- test_context: read-out: PPB

{"columns": ["item_smiles", "fraction unbound"],
 "data": [
  ["CNC(=O)c1csc2c(C(F)(F)F)cc(N3CCC(OC(=O)N[C@@H](C)COC(F)(F)F)CC3)nc12", "< 0.01"]
]}

---

- test_method_notes: Ratio of drug concentration in brain to plasma in C57BL/6 mouse measured at 1 hr
- Assay type: ADME, organism-based
- test_context: read-out: BPR
Output schema: class label derived from Kp at 1 h. Mapping: Low: < 0.4; Medium: ≥ 0.4 and < 0.7; High: ≥ 0.7

{"columns": ["item_smiles", "cat"],
 "data": [
  ["CNC(=O)c1csc2c(C(F)(F)F)cc(N3CCN(CCOC(C)C)CC3)nc12", "High"],
  ["CNC(=O)c1csc2c(C(F)(F)F)cc(N3CCC(OC(=O)NCCOC(F)(F)F)CC3)nc12", "Low"],
  ["CNC(=O)c1csc2c(C(F)(F)F)cc(N3CCC(OC(=O)NCC4CC4)CC3)nc12", "Low"],
  ["CNC(=O)c1csc2c(C(F)(F)F)cc(N3CCC(OC(=O)N[C@@H](C)COC(F)(F)F)CC3)nc12", "Medium"],
  ["CNC(=O)c1csc2c(C(F)(F)F)cc(N3CCC(OC(=O)N4CC(OC(F)(F)F)C4)CC3)nc12", "Medium"],
  ["CNC(=O)c1csc2c(C(F)(F)F)cc(N3CCC(OC(=O)N[C@@H](C)C4CC4)CC3)nc12", "Medium"],
  ["CNC(=O)c1csc2c(C(F)(F)F)cc(N3CCN(CC(=O)C(C)(C)C)CC3)nc12", "Medium"],
  ["CNC(=O)c1csc2c(C(F)(F)F)cc(N3CCC(OC(=O)NC(C)C)CC3)nc12", "High"]
]}

---

- test_method_notes: Cmax in Sprague-Dawley rat at 3 mg/kg, po
- Type: ADME, organism-based
- Design: route oral, dose 3 mg/kg
- test_context: in vivo
reported_metric: Cmax (ng/mL)

{"columns": ["item_smiles", "measured_number"],
 "data": [
  ["CNC(=O)c1csc2c(C(F)(F)F)cc(N3CCC(OC(=O)N[C@@H](C)COC(F)(F)F)CC3)nc12", 405]
]}

---

- test_method_notes: Thermodynamic solubility of the compound […] at pH 7.4
- Type: physicochemical
- test_context: read-out: Therm_solubility
reported_metric: solubility thermodynamic

{"columns": ["item_smiles", "reported_metric", "result"],
 "data": [
  ["CNC(=O)c1csc2c(C(F)(F)F)cc(N3CCC(OC(=O)NCCN4CCCC4)CC3)nc12", "solubility thermodynamic", "430 µM"],
  ["CNC(=O)c1csc2c(C(F)(F)F)cc(N3CCC(OC(=O)N[C@@H](C)COC(F)(F)F)CC3)nc12", "solubility thermodynamic", "< 0.5 µM"],
  ["CNC(=O)c1csc2c(C(F)(F)F)cc(N3CCC(OC(=O)NCCOC(F)(F)F)CC3)nc12", "solubility thermodynamic", "< 0.5 µM"],
  ["CNC(=O)c1csc2c(C(F)(F)F)cc(N3CCC(OC(=O)N[C@@H](C)C4CC4)CC3)nc12", "solubility thermodynamic", "< 0.5 µM"],
  ["CNC(=O)c1csc2c(C(F)(F)F)cc(N3CCC(OC(=O)N4CC(OC(F)(F)F)C4)CC3)nc12", "solubility thermodynamic", "< 0.5 µM"],
  ["CC[C@H](C)NC(=O)OC1CCN(c2cc(C(F)(F)F)c3scc(C(=O)NC)c3n2)CC1", "solubility thermodynamic", "< 0.5 µM"],
  ["CNC(=O)c1csc2c(C(F)(F)F)cc(N3CCC(OC(=O)N4CC(CN(C)C)C4)CC3)nc12", "solubility thermodynamic", "420 µM"]
]}

---

- test_method_notes: AUC (0 to last) in Sprague-Dawley rat at 3 mg/kg, po
- Type: ADME, organism-based
- Set-up: time 0 - last, route oral, dose 3 mg/kg
- test_context: in vivo

{"columns": ["item_smiles", "unit_descriptor", "AUC(0-t)"],
 "data": [
  ["CNC(=O)c1csc2c(C(F)(F)F)cc(N3CCC(OC(=O)N[C@@H](C)COC(F)(F)F)CC3)nc12", "ng·h/mL", 3060]
]}

---

- test_method_notes: Drug uptake in C57BL/6 mouse brain at 3 mg/kg, iv measured at 5 mins
- Format: ADME, organism-based
- test_context: read-out: Drug uptake
Hi, to clarify the labels: Satisfied covers concentration at 5 min from 2000 ng/mL upward, Not satisfied covers anything below 2000 ng/mL.

{"columns": ["compound", "cat"],
 "data": [
  ["CCC(=O)c1csc2c(C(F)(F)F)cc(N3CCN(CC(=O)NC(C)C)CC3)nc12", "Not satisfied"],
  ["CNC(=O)c1csc2c(C(F)(F)F)cc(N3CCN(CC(=O)C(C)(C)C)CC3)nc12", "Not satisfied"],
  ["CC[C@H](C)NC(=O)OC1CCN(c2cc(C(F)(F)F)c3scc(C(=O)NC)c3n2)CC1", "Satisfied"],
  ["CNC(=O)c1csc2c(C(F)(F)F)cc(N3CCC(OC(=O)NCC4CC4)CC3)nc12", "Satisfied"],
  ["CNC(=O)c1csc2c(C(F)(F)F)cc(N3CCC(OC(=O)N[C@@H](C)C4CC4)CC3)nc12", "Not satisfied"],
  ["CNC(=O)c1csc2c(C(F)(F)F)cc(N3CCN(C(C)C(=O)NC4CC4)CC3)nc12 (centres undefined)", "Not satisfied"],
  ["CNC(=O)c1csc2c(C(F)(F)F)cc(N3CCN(CCOC(C)C)CC3)nc12", "Satisfied"],
  ["CNC(=O)c1csc2c(C(F)(F)F)cc(N3CCC(OC(=O)N4CC(OC(F)(F)F)C4)CC3)nc12", "Satisfied"]
]}

---

- test_method_notes: Cmax in Beagle dog at 3 mg/kg, po
- Format: ADME, organism-based, Canis lupus familiaris
- Parameters: route oral, dose 3 mg/kg
- test_context: in vivo

{"columns": ["item_smiles", "unit_descriptor", "Cmax"],
 "data": [
  ["CNC(=O)c1csc2c(C(F)(F)F)cc(N3CCC(OC(=O)N[C@@H](C)COC(F)(F)F)CC3)nc12", "ng/mL", 693]
]}

---

The entries below are paired with their reported Kp at 5 min.
- test_method_notes: Ratio of drug concentration in brain to plasma in C57BL/6 mouse measured at 5 mins
- Type: ADME, organism-based
- test_context: read-out: BPR
reported_metric: Kp at 5 min

{"columns": ["item_smiles", "measured_number"],
 "data": [
  ["CNC(=O)c1csc2c(C(F)(F)F)cc(N3CCC(OC(=O)NCC4CC4)CC3)nc12", 0.91],
  ["CCC(=O)c1csc2c(C(F)(F)F)cc(N3CCN(CC(=O)NC(C)C)CC3)nc12", 0.83],
  ["CNC(=O)c1csc2c(C(F)(F)F)cc(N3CCN(CCOC(C)C)CC3)nc12", 1.8],
  ["CNC(=O)c1csc2c(C(F)(F)F)cc(N3CCC(OC(=O)N[C@@H](C)COC(F)(F)F)CC3)nc12", 0.69],
  ["CNC(=O)c1csc2c(C(F)(F)F)cc(N3CCC(OC(=O)NCCOC(F)(F)F)CC3)nc12", 0.59]
]}
